biological target: UniProt P35408; experiment: hEP4 b-arrestin assay (PathHunter HEK 293 PTGER4 b-arrestin cells); details: antagonistic activity, beta-arrestin assay; read-out: hEP4 b-arr IC50
measure: IC50 (nM)

{"line-notation": "CCc1cc(-c2cc(NCCc3c(C)sc4c(C)cc(F)cc34)ncn2)cc(C)c1CC(=O)O", "system": "UniProt P35408", "IC50 / nM": 96}

a = COc1cc(Cl)cc2c(CCNc3cc(-c4cc(F)c(C(=O)O)c(OC5CCC5)c4)ncn3)c(C)oc12
b = Cc1sc2c(C)cccc2c1CCNc1cc(-c2ccc(C(=O)O)cc2)ncn1
Enquiry: When their IC50 values are compared, which is larger, a or b ? Returns: label corresponding to the selected item.
Return: b
(b: 1170 nM, a: 163 nM)

P = Cc1sc2c(C)cc(F)cc2c1CCNc1cc(-c2ccc(-c3cc(O)no3)cc2)ncn1
Q = CSc1cc(-c2cc(NCCc3c(C)sc4c(Cl)ccc(Cl)c34)ncn2)ccc1C(=O)O
Enquiry: Smaller IC50 value? Options are P and Q Write the label of whichever entry you select.
Return: P

----------
Molecular target: EP2 receptor (Homo sapiens)
Construct: SF295 glioblastoma cells express high endogenous EP2 and no EP4
Test: hEP2 cAMP assay (SF295 glioblastoma cells, HTRF cAMP, PGE2 stimulation)
Conditions: antagonistic activity
Method: The antagonistic activities of the compounds of formula (I) on the EP2 and EP4 receptors are also determined in accordance with the following experimental method. Human tumor cell lines expressing endogenously either EP4 or EP2 are used and cAMP accumulation in cells upon PGE2 stimulation is monitored. […] The obtained Delta F (fluorescence) values (665 nm/620 nM) are converted into % cAMP values using the measurements of the cAMP calibrator provided in the kit. […]
pIC50: −log10 of the molar value.
measure: pIC50

Examples from the recorded data:
{"compound": "CCOc1cc(-c2cc(NCCc3c(C)oc4ccccc34)ncn2)ccc1C(=O)O [Example 73]", "system": "EP2 receptor (Homo sapiens)", "pIC50": 8.40}
{"compound": "CCCc1cc(-c2cc(NCCc3c(C)sc4c(C)cc(F)cc34)ncn2)ccc1C(=O)O [Example 45]", "system": "EP2 receptor (Homo sapiens)", "pIC50": 7.32}

1 = COc1cc(-c2cc(NCCc3c(C#N)sc4c(C)cc(F)cc34)ncn2)ccc1CC(=O)O [Example 168]
2 = COc1cc(-c2cc(NCCc3c(C)sc4c(C)ccc(F)c34)ncn2)cc(C)c1C(=O)O [Example 74]
Enquiry: Dear colleague, could you let me know whether 1 or 2 has the lower recorded pIC50? Thanks. In your reply, give the label of the chosen option.
Return: 1
(1: 5.52, 2: 6.56)

a = CCOc1cc(-c2cc(NCCc3c(C)sc4c(C)ccc(F)c34)ncn2)cc(C)c1C(=O)O [Example 103]
b = CCSc1cc(-c2cc(NCCc3c(C)oc4ccccc34)ncn2)ccc1C(=O)O [Example 44]
Enquiry: Lab note: record which item had the higher pIC50, a or b . Reply briefly: the label of your chosen item.
Return: b
(b: 8.40, a: 6.95)

1 = CCOc1cc(-c2cc(NCCc3c(C)sc4c(C)ccc(F)c34)ncn2)ccc1C(=O)O [Example 61]
2 = Cc1sc2c(C)cc(F)cc2c1CCNc1cc(-c2ccc(-c3cc(O)no3)cc2)ncn1 [Example 81]
3 = Cc1sc2c(C)cccc2c1CCNc1cc(-c2ccc(C(=O)O)cc2)ncn1 [Example 8]
Enquiry: Arrange the 3 compounds by rising pIC50, starting with the smallest. # the answer lists labels in the order requested
Return: 2, 1, 3

I = CCOc1cc(-c2cc(NCCc3c(C)sc4c(C)cc(F)cc34)ncn2)ccc1-c1noc(=O)[nH]1 [Example 155]
II = Cc1sc2c(C)cc(F)cc2c1CCNc1cc(-c2ccc(C(=O)O)c(OC(F)F)c2)ncn1 [Example 115]
Enquiry: // pick min by pIC50: I , II Could you answer with the label of the item you picked?
Return: I
(I: 7.06, II: 8.10)

----------
target: PTGER2 (EP2) (Homo sapiens); assay: hEP2 b-arrestin assay (PathHunter HEK 293 PTGER2 b-arrestin cells); details: antagonistic activity, beta-arrestin assay; read-out: hEP2 b-arr IC50
Sequence (P43116 whole entry): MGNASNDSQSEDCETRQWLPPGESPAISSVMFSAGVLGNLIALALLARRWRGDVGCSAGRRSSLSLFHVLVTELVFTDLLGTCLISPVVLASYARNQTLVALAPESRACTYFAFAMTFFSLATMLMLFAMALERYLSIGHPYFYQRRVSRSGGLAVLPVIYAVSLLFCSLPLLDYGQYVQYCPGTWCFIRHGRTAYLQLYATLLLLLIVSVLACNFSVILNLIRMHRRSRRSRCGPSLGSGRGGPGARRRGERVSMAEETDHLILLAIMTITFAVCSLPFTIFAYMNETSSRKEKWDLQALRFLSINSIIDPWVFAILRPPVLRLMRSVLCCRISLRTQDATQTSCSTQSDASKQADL
measure: IC50 (nM)

P = CCCSc1cc(-c2cc(NCCc3c(C)sc4ccccc34)ncn2)ccc1C(=O)O
Q = CCOc1cc(-c2cc(NCCc3c(C)sc4c(C)cc(F)cc34)ncn2)sc1CCC(=O)O
Enquiry: Among P and Q , whose measured IC50 is the smaller figure? In your reply, give the label of the chosen option.
Return: P

a = Cc1sc2c(C)cc(F)cc2c1CCNc1cc(-c2cc3ccc(C(=O)O)cc3[nH]2)ncn1
b = COc1cc(Cl)cc2c(CCNc3cc(-c4ccc(C(=O)O)c(OC5CCC5)c4F)ncn3)c(C)oc12
c = Cc1oc2ccccc2c1CCNc1cc(-c2ccc(C(=O)O)c(SC(C)C)c2)ncn1
d = COc1cc(F)c(F)c2c(CCNc3cc(-c4ccc(C(=O)O)c(OC5CC5)c4)ncn3)c(C)oc12
Enquiry: Kindly order the items shown according to IC50, from the highest value down. Give your ranking as a list of the labels in the requested order.
Return: b, d, a, c
(b: 213 nM, d: 68 nM, a: 13 nM, c: 6 nM)

----------
Molecular target: EP2 receptor (Homo sapiens, UniProt P43116)
Construct: SF295 glioblastoma cells express high endogenous EP2 and no EP4
Test: hEP2 cAMP assay (SF295 glioblastoma cells, HTRF cAMP, PGE2 stimulation)
Settings: antagonistic activity
Procedure: The antagonistic activities of the compounds of formula (I) on the EP2 and EP4 receptors are also determined in accordance with the following experimental method. Human tumor cell lines expressing endogenously either EP4 or EP2 are used and cAMP accumulation in cells upon PGE2 stimulation is monitored. […] The obtained Delta F (fluorescence) values (665 nm/620 nM) are converted into % cAMP values using the measurements of the cAMP calibrator provided in the kit. […]
measure: IC50 (nM)

{"line-notation": "CSc1cc(-c2cc(NCCc3c(C)sc4ccccc34)ncn2)ccc1C(=O)O", "scale-unit": "nM", "IC50": 4}
{"line-notation": "CCCOc1cc(-c2cc(NCCc3c(C)sc4c(OC)ccc(Cl)c34)ncn2)ccc1C(=O)O", "scale-unit": "nM", "IC50": 85}
{"line-notation": "CCOc1nc(-c2cc(NCCc3c(C)sc4c(C)cc(F)cc34)ncn2)sc1-c1noc(=O)[nH]1", "scale-unit": "nM", "IC50": 35}
{"line-notation": "Cc1sc2c(C)cccc2c1CCNc1cc(-c2ccc(C(=O)O)c(SCC(C)C)c2)ncn1", "scale-unit": "nM", "IC50": 183}
{"line-notation": "CSc1cc(-c2cc(NCCc3c(C)oc4c(C)cc(F)cc34)ncn2)ccc1C(=O)O", "scale-unit": "nM", "IC50": 21}
{"line-notation": "Cc1oc2ccccc2c1CCNc1cc(-c2ccc(C(=O)O)c(SC3CCC3)c2)ncn1", "scale-unit": "nM", "IC50": 15}

a = COc1ccc(Cl)c2c(CCNc3cc(-c4ccc(C(=O)O)c(SC)c4)ncn3)c(C)sc12
b = CCCSc1cc(-c2cc(NCCc3c(C)oc4ccccc34)ncn2)ccc1C(=O)O
Enquiry: For the two items a and b , which reports the higher IC50 value? The response must carry the label of the picked entry.
Return: a

----------
target: PTGER4 (EP4) (Homo sapiens, UniProt P35408); construct: host or cells: HEK 293 (PathHunter PTGER4 b-arrestin cell line); assay: hEP4 b-arrestin assay (PathHunter HEK 293 PTGER4 b-arrestin cells); type: cell-based; settings: antagonistic activity, beta-arrestin assay; read-out: hEP4 b-arr IC50
Sequence (P35408 whole entry): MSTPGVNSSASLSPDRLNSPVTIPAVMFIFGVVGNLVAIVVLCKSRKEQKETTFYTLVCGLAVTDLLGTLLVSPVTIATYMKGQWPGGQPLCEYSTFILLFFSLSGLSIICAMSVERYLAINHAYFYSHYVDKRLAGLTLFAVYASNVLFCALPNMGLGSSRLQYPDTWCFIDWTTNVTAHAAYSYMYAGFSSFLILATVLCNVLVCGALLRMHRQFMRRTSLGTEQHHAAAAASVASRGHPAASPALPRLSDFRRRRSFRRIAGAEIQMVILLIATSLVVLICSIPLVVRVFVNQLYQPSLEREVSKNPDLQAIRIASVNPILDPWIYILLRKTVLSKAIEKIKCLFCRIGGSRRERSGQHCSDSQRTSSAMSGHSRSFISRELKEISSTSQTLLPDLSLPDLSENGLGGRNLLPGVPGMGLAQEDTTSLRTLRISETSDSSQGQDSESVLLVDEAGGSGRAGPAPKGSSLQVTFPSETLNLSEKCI
measure: IC50 (nM)

Example entries and their recorded answers appear below.
{"compound": "CCOc1cc(-c2cc(NCCc3c(C)sc4c(C)cc(F)cc34)ncn2)ccc1OCCC(=O)O [Example 143]", "reported-result": 63}
{"compound": "Cc1sc2c(C)cccc2c1CCNc1cc(-c2ccc(C(=O)O)c(SC3COC3)c2)ncn1 [Example 131]", "reported-result": 1220}
{"compound": "CCc1oc2c(C)cc(F)cc2c1CCNc1cc(-c2ccc(C(=O)O)c(SC)c2)ncn1 [Example 22]", "reported-result": 493}
{"compound": "CCCCOc1cc(-c2cc(NCCc3c(C)sc4c(C)cc(F)cc34)ncn2)ccc1C(=O)O [Example 127]", "reported-result": 225}
{"compound": "CCOc1cc(-c2cc(NCCc3c(C)sc4c(C)ccc(F)c34)ncn2)cc(C)c1C(=O)O [Example 103]", "reported-result": 521}

I = CCCOc1cc(-c2cc(NCCc3c(C#N)sc4c(C)cc(F)cc34)ncn2)ccc1CC(=O)O [Example 169]
II = CCOc1cc(-c2cc(NCCc3c(C)sc4c(Cl)cc(F)cc34)ncn2)ccc1CC(=O)O [Example 113]
III = COc1cc(-c2cc(NCCc3c(C#N)sc4c(C)cc(F)cc34)ncn2)ccc1CC(=O)O [Example 168]
Enquiry: Arrange by IC50, high to low. I'd appreciate it if you listed the labels in the requested order.
Return: II, I, III

P = CCOc1cc(-c2cc(NCCc3c(C)sc4c(C)cc(F)cc34)ncn2)sc1CC(=O)O [Example 52]
Q = CCSc1cc(-c2cc(NCCc3c(C)sc4ccccc34)ncn2)ccc1C(=O)O [Example 43]
R = CCCc1cc(-c2cc(NCCc3c(C)sc4c(C)cc(F)cc34)ncn2)sc1CC(=O)O [Example 219]
S = Cc1sc2c(C)cc(F)cc2c1CCNc1cc(-c2ccc(C(=O)O)c(OC3CCCC3)c2)ncn1 [Example 152]
Enquiry: Place the items in sequence of falling IC50. Quick reminder: the answer is the labels in the order asked.
Return: Q, S, R, P
(Q: 1080 nM, S: 337 nM, R: 211 nM, P: 133 nM)
